// reported Ki for each item listed
# system_tested: human glucocorticoid receptor-α [GRX] isoform (Homo sapiens)
# Construct: host or cells: insect SF21 cells (baculovirus)
# assay: Radioligand binding with human glucocorticoid receptor cytosol ([3H]-dexamethasone competition)
# experimental_parameters: GRX cytosol expressed in insect SF21 cells, [3H]-Dex ~0.9 nM, 4° C. overnight; Ki by Cheng-Prusoff, KL ~[…]; read-out: Ki (nM) GR
recorded_metric: Ki (nM)

* COc1c(OC(=O)CCC(=O)N(C)C)ccc2c1-c1ccc3c(c1[C@H]([C@@H]1C=CCC1)O2)C(C)=CC(C)(C)N3 | 0.42
* CSCOc1cccc(C2Oc3cccc(OC(F)F)c3-c3ccc4c(c32)C(C)=CC(C)(C)N4)c1 (stereo not drawn) | 6.3
* COCCNc1cc(C)cc(C2Oc3cccc(OC)c3-c3ccc4c(c32)C(C)=CC(C)(C)N4)c1 (stereo not drawn) | 7.2
* C=CCC1Oc2ccc(OC(=S)N(C)C)c(OC)c2-c2ccc3c(c21)C(C)=CC(C)(C)N3 (stereo not drawn) | 113
* COC(=O)C1=C[C@@H]([C@@H]2Oc3ccc(O)c(OC)c3-c3ccc4c(c32)C(C)=CC(C)(C)N4)CC1 (racemic) | 0.82
* CNC(=O)OCCC1Oc2cccc(OC)c2-c2ccc3c(c21)C(C)=CC(C)(C)N3 (stereo not drawn) | 85
* CC1=CC(C)(C)Nc2ccc3c(c21)C(c1cccc(C(F)(F)F)c1)Oc1ccc(O)c(Cl)c1-3 (stereo not drawn) | 1.6
* COc1cccc2c1-c1ccc3c(c1C(c1ccccc1)O2)C(C)=CC(C)(C)N3 (single isomer, unassigned) [Example 26] | 2.1
* CCC1Oc2ccc(O)c(OC)c2-c2ccc3c(c21)C(C)=CC(C)(C)N3 (stereo not drawn) | 0.78
* COc1cccc2c1-c1ccc3c(c1C(c1cccc(C)c1)O2)C(C)=CC(C)(C)N3 (stereo not drawn) | 3.5
* COc1cccc2c1-c1ccc3c(c1C(C1C=CCCC1(C)C)O2)C(C)=CC(C)(C)N3 (stereo not drawn) | 13
* COc1cccc2c1-c1ccc3c(c1C(c1cccc(OS(=O)(=O)C(F)(F)F)c1)O2)C(C)=CC(C)(C)N3 (stereo not drawn) | 9
* COc1cccc2c1-c1ccc3c(c1C(c1cccc(CCO)c1)O2)C(C)=CC(C)(C)N3 (stereo not drawn) | 1.7
* CC1=CC(C)(C)Nc2ccc3c(c21)C(c1ccccc1)Oc1cccc(OC(F)(F)Br)c1-3 (stereo not drawn) | 44
* COc1cccc2c1-c1ccc3c(c1[C@@H](C1CCCOC1=O)O2)C(C)=CC(C)(C)N3 (stereo in doubt) | 238

* * *

# system_tested: human progesterone receptor-A [PRA] isoform (Homo sapiens, UniProt P06401)
# Construct: host or cells: insect SF21 cells (baculovirus)
# Sequence (P06401 1-769 isoform P06401-2): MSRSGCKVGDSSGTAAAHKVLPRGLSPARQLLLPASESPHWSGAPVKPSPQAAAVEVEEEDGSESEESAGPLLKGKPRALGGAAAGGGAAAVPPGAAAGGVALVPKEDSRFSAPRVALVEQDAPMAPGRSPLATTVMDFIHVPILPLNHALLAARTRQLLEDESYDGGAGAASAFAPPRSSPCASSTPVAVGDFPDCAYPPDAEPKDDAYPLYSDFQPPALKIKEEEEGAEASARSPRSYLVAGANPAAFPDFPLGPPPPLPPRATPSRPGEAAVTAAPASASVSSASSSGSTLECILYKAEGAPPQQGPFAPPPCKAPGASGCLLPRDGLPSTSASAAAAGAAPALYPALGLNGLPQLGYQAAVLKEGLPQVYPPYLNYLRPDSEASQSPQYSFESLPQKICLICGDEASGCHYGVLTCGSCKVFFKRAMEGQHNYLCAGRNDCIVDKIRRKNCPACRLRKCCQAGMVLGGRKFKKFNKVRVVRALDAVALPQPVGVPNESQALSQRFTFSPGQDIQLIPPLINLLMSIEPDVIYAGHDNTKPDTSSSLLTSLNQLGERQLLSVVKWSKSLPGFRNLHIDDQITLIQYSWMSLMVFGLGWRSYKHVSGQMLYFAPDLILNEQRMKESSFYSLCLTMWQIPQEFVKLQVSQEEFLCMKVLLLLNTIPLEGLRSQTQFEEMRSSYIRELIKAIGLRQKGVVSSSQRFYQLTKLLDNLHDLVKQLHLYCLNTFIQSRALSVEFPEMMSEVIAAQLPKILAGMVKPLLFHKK
# assay: Radioligand binding with human progesterone receptor cytosol ([3H]-progesterone competition)
# experimental_parameters: PRA cytosol expressed in insect SF21 cells, [3H]Prog ~0.8 nM, 4° C. overnight; Ki by Cheng-Prusoff, KL ~4.5 nM; read-out: Ki (nM) PR
Label key: t means Ki under 2000 nM; f means Ki of 2000 nM or more.

• COc1cccc2c1-c1ccc3c(c1C(c1cccc(OC(=O)N4CCOCC4)c1)O2)C(C)=CC(C)(C)N3 (centres unmarked) = f
• CC1=CC(C)(C)Nc2ccc3c(c21)C(c1ccccc1)Oc1cccc(C=O)c1-3 (centres unmarked) = t
• COc1cccc2c1-c1ccc3c(c1C(c1cccnc1)O2)C(C)=CC(C)(C)N3 (centres unmarked) = f
• C=CCC1Oc2cccc(OC(F)(F)Br)c2-c2ccc3c(c21)C(C)=CC(C)(C)N3 (centres unmarked) = f
• CCC1Oc2ccc(O)c(Cl)c2-c2ccc3c(c21)C(C)=CC(C)(C)N3 (centres unmarked) = t
• COc1cccc2c1-c1ccc3c(c1C(c1cc(C)cc(C)c1)O2)C(C)=CC(C)(C)N3 (centres unmarked) = f
• COc1cccc2c1-c1ccc3c(c1C(c1ccc(Cl)cc1)O2)C(C)=CC(C)(C)N3 (centres unmarked) = f
• COc1cccc2c1-c1ccc3c(c1C(c1cc(Cl)cc(Cl)c1)O2)C(C)=CC(C)(C)N3 (single isomer, unassigned; (+)) [Example 33] = f

* * *

# system_tested: human glucocorticoid receptor-α [GRX] isoform (Homo sapiens, UniProt P04150)
# Construct: host or cells: insect SF21 cells (baculovirus)
# Sequence (P04150 whole entry, canonical isoform): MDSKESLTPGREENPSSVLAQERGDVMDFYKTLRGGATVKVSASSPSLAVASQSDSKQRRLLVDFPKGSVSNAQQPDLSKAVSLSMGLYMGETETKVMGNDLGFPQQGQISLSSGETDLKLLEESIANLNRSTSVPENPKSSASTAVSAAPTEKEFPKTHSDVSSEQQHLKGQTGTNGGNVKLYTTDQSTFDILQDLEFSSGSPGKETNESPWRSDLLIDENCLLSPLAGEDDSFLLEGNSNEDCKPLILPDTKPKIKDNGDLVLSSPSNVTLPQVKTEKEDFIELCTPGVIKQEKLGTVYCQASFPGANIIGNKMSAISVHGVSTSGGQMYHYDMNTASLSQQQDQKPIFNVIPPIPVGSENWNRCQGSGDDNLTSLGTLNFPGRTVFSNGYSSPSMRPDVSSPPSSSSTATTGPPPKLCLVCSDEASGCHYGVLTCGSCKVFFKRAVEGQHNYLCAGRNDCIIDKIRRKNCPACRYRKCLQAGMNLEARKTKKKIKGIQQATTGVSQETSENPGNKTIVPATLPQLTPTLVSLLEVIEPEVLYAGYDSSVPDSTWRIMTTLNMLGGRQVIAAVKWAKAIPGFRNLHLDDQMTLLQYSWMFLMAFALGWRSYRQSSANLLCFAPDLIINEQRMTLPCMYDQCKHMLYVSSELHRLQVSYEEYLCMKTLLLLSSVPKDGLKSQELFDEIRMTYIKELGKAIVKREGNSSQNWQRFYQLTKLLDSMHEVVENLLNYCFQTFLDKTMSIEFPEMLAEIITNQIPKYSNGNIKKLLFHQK
# assay: Radioligand binding with human glucocorticoid receptor cytosol ([3H]-dexamethasone competition)
# experimental_parameters: GRX cytosol expressed in insect SF21 cells, [3H]-Dex ~0.9 nM, 4° C. overnight; Ki by Cheng-Prusoff, KL ~[…]; read-out: Ki (nM) GR
This listing pairs compounds with measured Ki.
recorded_metric: Ki (nM)

• COC(=O)CC1Oc2cccc(OC)c2-c2ccc3c(c21)C(C)=CC(C)(C)N3 (stereo not shown) = 2.7
• COc1cccc2c1-c1ccc3c(c1C(c1cccc(Oc4ccc([N+](=O)[O-])cc4[N+](=O)[O-])c1)O2)C(C)=CC(C)(C)N3 (stereo not shown) = 17
• COc1cccc2c1-c1ccc3c(c1C(C1C=C(CCl)CCC1)O2)C(C)=CC(C)(C)N3 (stereo not shown) = 3.8
• COc1cccc2c1-c1ccc3c(c1C(c1ccccc1)O2)C(C)=NC(C)(C)N3 (stereo not shown) = 4.2
• COc1ccc(Br)c2c1-c1ccc3c(c1C(C1C=C(C)CCC1)O2)C(C)=CC(C)(C)N3 (stereo not shown) = 5.4
• COc1c(O)ccc2c1-c1ccc3c(c1C(Cc1ccccc1F)O2)C(C)=CC(C)(C)N3 (stereo not shown) = 0.89
• C=C(C)CCC1Oc2cccc(OC)c2-c2ccc3c(c21)C(C)=CC(C)(C)N3 (stereo not shown) = 230
• COCC1=CC(C2Oc3cccc(OC)c3-c3ccc4c(c32)C(C)=CC(C)(C)N4)CCC1 (stereo not shown) [Example 160] = 1.8
• CC1=CC(C)(C)Nc2ccc3c(c21)C(c1ccccc1)Oc1cccc(Cl)c1-3 (racemic) = 4.4
• COc1c(O)ccc2c1-c1ccc3c(c1C(c1cc(F)cc(F)c1)O2)C(C)=CC(C)(C)N3 (stereo not shown) = 0.8
• COc1cccc2c1-c1ccc3c(c1C(c1cccs1)O2)C(C)=CC(C)(C)N3 (stereo not shown) = 5.5
• COc1cccc2c1-c1ccc3c(c1C(=Cc1cc(C)no1)O2)C(C)=CC(C)(C)N3 = 6.22
• COc1cccc2c1-c1ccc3c(c1C(c1cc(C)cc(C(C)=O)c1)O2)C(C)=CC(C)(C)N3 (stereo not shown) = 5.6
• COc1c(OC(=O)CCC(=O)N(C)C)ccc2c1-c1ccc3c(c1C(c1cc(F)c(F)c(F)c1)O2)C(C)=CC(C)(C)N3 (stereo not shown) = 7.1
• COc1cccc2c1-c1ccc3c(c1C(=Cc1cccc(C(F)(F)F)c1)O2)C(C)=CC(C)(C)N3 = 11.8
• COc1ccc(C2Oc3cccc(OC)c3-c3ccc4c(c32)C(C)=CC(C)(C)N4)s1 (stereo not shown) = 18

* * *

# system_tested: human glucocorticoid receptor-α [GRX] isoform (Homo sapiens)
# Construct: host or cells: insect SF21 cells (baculovirus)
# assay: Radioligand binding with human glucocorticoid receptor cytosol ([3H]-dexamethasone competition)
# experimental_parameters: GRX cytosol expressed in insect SF21 cells, [3H]-Dex ~0.9 nM, 4° C. overnight; Ki by Cheng-Prusoff, KL ~[…]; read-out: Ki (nM) GR
recorded_metric: Ki (nM)

• C=CCC1Oc2cccc(OC)c2-c2ccc3c(c21)C(C)=CC(C)(C)N3 (single isomer, unassigned; (+)) [Example 37] = 20
• COc1cccc2c1-c1ccc3c(c1C(=Cc1c(F)cccc1F)O2)C(C)=CC(C)(C)N3 = 6.1
• COc1cccc2c1-c1ccc3c(c1C(C1C=CCC(C)(C)C1)O2)C(C)=CC(C)(C)N3 (mixture of isomers) = 3.6
• COc1c(O)ccc2c1-c1ccc3c(c1C(CC(C)C)O2)C(C)=CC(C)(C)N3 (stereo not shown) = 1.2
• COc1cccc2c1-c1ccc3c(c1C(C=C(C)C)O2)C(C)=CC(C)(C)N3 (stereo not shown) = 24
• COc1cccc2c1-c1ccc3c(c1C(C1CC1)O2)C(C)=CC(C)(C)N3 (stereo not shown) = 16
• COc1cccc2c1-c1ccc3c(c1C(c1cccc(C4=NC(C)(C)CO4)c1)O2)C(C)=CC(C)(C)N3 (stereo not shown) = 62

Values from patent US6506766B1
